- Test System: T1, Human CD47-C33G (human, UniProt Q08722 19-135)
- T1 construct: also called CD47 mutein with C33G mutation
- T1 sequence (Q08722 19-135 C33G limits assumed): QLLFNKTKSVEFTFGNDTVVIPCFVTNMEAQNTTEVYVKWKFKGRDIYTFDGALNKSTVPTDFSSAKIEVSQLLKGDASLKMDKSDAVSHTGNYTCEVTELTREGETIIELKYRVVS
- Assay Details: SPR, IgG captured, CD47 in flow; exp 3;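 further: other target is a CD47 mutein carrying C33G, used to obtain true monovalent affinity, with kon and koff fitted from SPR binding curves and KD derived from both rates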

Binder	koff
108VH10.Mh / 108VL10.Me (antibody, V domains shown, 4D5-framework series; constant regions not restated for this series; also called VH10.Mh VL10.Me) VH: EVQLVESGGGLVQPGGSLRLSCAASGFTFSHHWIHWVRQAPGKGLEWVAMIDASDSETRLVQKFKDRFTISADTSKNTAYLQMNSLRAEDTAVYYCSRLGRYYFDYWGQGTLVTVSS VL: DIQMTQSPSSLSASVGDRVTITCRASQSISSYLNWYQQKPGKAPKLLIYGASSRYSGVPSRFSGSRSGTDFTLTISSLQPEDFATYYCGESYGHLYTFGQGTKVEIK	0.013 s⁻¹
108VH10.Mk / 108VL10.Me (antibody, V domains shown, 4D5-framework series; also called VH10.Mk VL10.Me) VH: EVQLVESGGGLVQPGGSLRLSCAASGFTFSHHWIHWVRQAPGKGLEWVAMIDASDSETRLSQKVKDRFTISADTSKNTAYLQMNSLRAEDTAVYYCSRLGRYYFDYWGQGTLVTVSS VL: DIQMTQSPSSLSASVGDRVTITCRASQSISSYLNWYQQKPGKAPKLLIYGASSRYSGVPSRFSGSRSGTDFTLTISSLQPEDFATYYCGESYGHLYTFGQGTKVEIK	0.019 s⁻¹
108VH4.M4-VL1.M1 (antibody, V domains shown, also called original humanized 108C10A6 antibody) VH: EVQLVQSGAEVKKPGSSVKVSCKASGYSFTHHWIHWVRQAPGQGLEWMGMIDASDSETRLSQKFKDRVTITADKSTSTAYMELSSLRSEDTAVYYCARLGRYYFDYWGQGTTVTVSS VL: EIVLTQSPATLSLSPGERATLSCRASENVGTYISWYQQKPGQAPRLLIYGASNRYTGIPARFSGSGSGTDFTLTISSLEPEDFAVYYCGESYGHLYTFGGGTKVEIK	0.00084 s⁻¹
